The origin of these recorded values is patent US5342771A.

- assayed-target: antibody
- measurement-protocol: Cross-reactivity of the antibody by ELISA (competitive binding with enzyme conjugate)
- Design: species or system New Zealand white rabbits
- condition-parameters: concentration giving 50% reduction of absorbance caused by enzyme conjugate binding to a known amount of antibody
For each entry below, report its I50 (50% inhibition concentration) value.

Some entries whose results are on file:
>>> observed_measurement("CCCCOCN(C(=O)CCl)c1c(CC)cccc1CC [Butachlor]")
"> 100,000 ng/mL"
>>> observed_measurement("COC(=O)c1nc2ccccc2cc1C(=O)NC(C)(C(N)=O)C(C)C (stereo not shown)")
"> 5,000 ng/mL"
>>> observed_measurement("CCc1cccc(CC)c1N(COC)C(=O)CCl [Alachlor]")
"> 100,000 ng/mL"
>>> observed_measurement("CCC(CC)Nc1c([N+](=O)[O-])cc(C)c(C)c1[N+](=O)[O-] [Pendimethalin]")
"> 100,000 ng/mL"
>>> observed_measurement("CCNc1nc(Cl)nc(NC(C)C)n1 [Atrazine]")
"> 100,000 ng/mL"
>>> observed_measurement("CC(C)C1(C)N=C(c2nc3ccccc3cc2C(=O)O)NC1=O (stereo not shown) [Imazaquin]")
"10.7 ng/mL"
>>> observed_measurement("CCc1cnc(C2=NC(C)(C(C)C)C(=O)N2)c(C(=O)O)c1 (stereo not shown) [Imazethapyr]")
"18.5 ng/mL"
>>> observed_measurement("CC(C)C(C)(C(N)=O)N1C(=O)c2cc3ccccc3nc2C1=O (stereo not shown)")
"> 5,000 ng/mL"

For each of the items listed, what is its I50 (50% inhibition concentration)?
1. CC(C)C(C)(NC(=O)c1nc2ccccc2cc1C(=O)O)C(N)=O (stereo not shown)
2. C[n+]1ccc(-c2cc[n+](C)cc2)cc1 [Paraquat]
3. CC(C)C1(C)N=C(c2ncccc2C(=O)O)NC1=O (stereo not shown) [Imazapyr]
4. COc1nc(C)nc(NC(=O)NS(=O)(=O)c2ccccc2Cl)n1 [Chlorsulfuron]
5. CC(C)C(C)(NC(=O)c1cc2ccccc2nc1C(=O)O)C(N)=O (stereo not shown)

## Result
1. > 5,000 ng/mL
2. > 100,000 ng/mL
3. 149.0 ng/mL
4. > 100,000 ng/mL
5. > 5,000 ng/mL
